- Protocol: Inhibition of CXCL8-induced cell migration in human PMN cells at 0.01 uM by chemotaxis assay
- Assay type: functional
Measured Parameter: inhibition at 0.01 µM (%)
Answers are plain numbers, in %.

Solved entries:
[
  {
    "Molecule": "CC(C(=O)O)c1ccc(OS(=O)(=O)c2ccccc2)cc1 (configuration not stated)",
    "inhibition at 0.01 µM [%]": 55
  },
  {
    "Molecule": "CC(C(=O)O)c1cccc(C(=O)c2cccs2)c1 (configuration not stated)",
    "inhibition at 0.01 µM [%]": 51
  },
  {
    "Molecule": "CC(C(=O)O)c1cccc(Cc2ccccc2)c1 (configuration not stated)",
    "inhibition at 0.01 µM [%]": 10
  },
  {
    "Molecule": "Cc1ccc(S(=O)(=O)Nc2ccc(C(C)C(=O)O)cc2)cc1 (configuration not stated)",
    "inhibition at 0.01 µM [%]": 69
  },
  {
    "Molecule": "CC(C(=O)O)c1ccc(C(C)(C)C)cc1 (configuration not stated)",
    "inhibition at 0.01 µM [%]": 6
  }
]

Parameters: items (list). Returns: inhibition at 0.01 µM for each item.
1. C=C(c1ccccc1)c1cccc(C(C)C(=O)O)c1 (configuration not stated)
2. CC(C(=O)O)c1ccc(CC2CCC2)cc1 (configuration not stated)
3. C[C@@H](C(=O)Nc1ccccn1)c1ccc(OS(=O)(=O)C(F)(F)F)cc1
4. CC(C(=O)O)c1cccc(C(C)(O)c2ccccc2)c1 (configuration not stated)
5. CC(C)S(=O)(=O)NC(=O)[C@H](C)c1ccc(OS(=O)(=O)C(F)(F)F)cc1
6. CC(C(=O)O)c1cccc(C(=O)C2CCCCC2)c1 (configuration not stated)

**A:**
[47, 55, 48, 0, 60, 5]

**Q:** inhibition at 0.01 µM lookup needed for CCC(=O)c1cccc(C(C)C(=O)O)c1 (configuration not stated) , thanks.
**A:** 1
